test: chemical genetic growth profiling, strain panel (AID 1159580);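 note: tested at 20 µM; growth read once vehicle control cultures reached saturation at 30 °C; 1 = growth at the plate median or of vehicle wells; lower values mean less growth of the strain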; details: S. cerevisiae deletion strains, growth OD, locus YNL175C, strain NOP13, stronger effect = lower value
Among all 5,500 compounds or so, about 2,000 (36%) were called active. Inconclusive results (about 18%) are left out. The list shows a part of the results.
Item-by-item account of normalized growth
quantity: normalized growth

compound | result
Clc1ccc(N2CC3CCC(C2)N3)nn1 | 0.995
CN1CCC(c2c[nH]c3ccc(O)cc23)CC1 | 1.01
O=C(O)C1=CCNCC1 | 0.994
Nc1ncnc2c1ncn2[C@@H]1O[C@H](COP(=O)(O)OP(=O)(O)OP(=O)(O)OP(=O)(O)OC[C@@H]2O[C@H](n3cnc4c(N)ncnc43)C(O)[C@@H]2O)[C@H](O)C1O (stereo partly drawn) | 0.997
Nc1ncnc2c1ncn2[C@@H]1O[C@H](CO)[C@H](O)C1O (stereo partly drawn) | 1.02
CCn1ccnc1CC1COc2ccccc2O1 (stereo not drawn) | 0.997
Nc1ncnc2c1ncn2[C@@H]1O[C@H](COP(=O)(O)CP(=O)(O)OP(=O)(O)O)[C@H](O)C1O (stereo partly drawn) | 1
O=S(=O)(O)C1CCNCC1 | 0.995
